The measurements presented in this section are drawn from ChEMBL document CHEMBL1123279.

test_details: Partition coefficient (logD7.4)
Format: physicochemical
details: octanol/water, pH 7.4
Each entry falls in a class defined on logD; the bands are label 0: < 0.5; label 1: ≥ 0.5 and < 2; label 2: ≥ 2

Worked examples, 4 compounds total:
COc1ccc(CCNCC(O)COc2ccc(-c3ncco3)cc2)cc1OC (configuration not stated) | label 1
CC(C)NCC(O)COc1ccc(Cc2nc(Br)c[nH]2)cc1 (configuration not stated) | label 0
COc1ccc(CCNCC(O)COc2ccc(-c3nc(C)c[nH]3)cc2Br)cc1OC (configuration not stated) | label 1
COc1ccc(CCNCC(O)COc2ccc(-c3nccn3C)cc2)cc1OC.Cl.Cl (configuration not stated) | label 1

Req: Category of COc1ccc(CCNCC(O)COc2ccc(-c3nc(-c4cccs4)c[nH]3)cc2C)cc1OC (configuration not stated) :
Resp: label 2

Req: Category of COc1ccc(CCNCC(O)COc2ccc(-c3nc(C(N)=O)c[nH]3)cc2)cc1OC (configuration not stated) :
Resp: label 0

Req: Category of COCc1[nH]c(-c2ccc(OCC(O)CNCCc3ccc(OC)c(OC)c3)cc2)nc1C (configuration not stated) :
Resp: label 1
